TARGET_SYSTEM: T1, soluble recombinant human uPAR/His6 (R&D Systems, Cat. # 807-UK-100) (human, UniProt Q03405 23-303)
T1 construct: range 1-303; Bought protein; also called soluble uPAR; hu-uPAR
T1 sequence (Q03405 other isoform, or with tags, fused parts or gaps limits assumed, form in doubt): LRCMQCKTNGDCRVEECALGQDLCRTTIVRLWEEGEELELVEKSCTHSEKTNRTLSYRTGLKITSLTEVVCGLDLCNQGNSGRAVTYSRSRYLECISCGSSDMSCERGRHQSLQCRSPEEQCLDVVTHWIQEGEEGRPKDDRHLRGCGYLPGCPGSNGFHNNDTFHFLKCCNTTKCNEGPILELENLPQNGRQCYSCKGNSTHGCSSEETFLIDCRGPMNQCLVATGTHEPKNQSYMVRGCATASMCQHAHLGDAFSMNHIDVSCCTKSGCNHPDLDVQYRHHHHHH
PROTOCOL_NOTES: low resolution Biacore
Would you mind telling me the reported Kd of each entry?
Please reply with the bare figure in nM and do not write the unit itself.

Request: # query: Kd of entry fully human monoclonal antibody 4.18.1 (ATCC Accession Number PTA-7476) (antibody, V domains shown) VH: EVQLVESGGGLIQPGGSLRLSCAASGFTVRNNYMNWVRQAPGKGLEWVSVIYTGGSTYYADSVKGRFTISRDNSRNTLYLQMNSLRAEDTAVYYCAREGAVAGFDYWGQGTLVTVSL VL: EIVMTQFPATLSMSPGERATLSCRASQSVSSSLAWYQQTPGQAPRLLIYGASTRSTGFPARFSGIGSGTEFTLTISSLQSEDFAVYYCQQYGNWPLTFGQGTRLEIK
Response: 1.5

Request: Also fully human monoclonal antibody 2.6.1 (ATCC Accession Number PTA-7475) (antibody, V domains shown, also called mAb 2.6.1) VH: EVQLVESGGGLIQPGGSLRLSCAASGFTVITNYMNWVRQAPGKGLEWVSIIYTGGSTSYADSVKGRFTVSRDNSKNTLYLHMNSLRVEDTAVYYCAREIAVAGYYGMDVWGQGTTVTVS VL: DIQMTQSPSSLSASVGDRVTITCRASQGIRNDLGWYQQKPGKAPKRLIYAASSLQSGVPSRFSGSGSGTEFTLTISSLQPEDFATYYCLQHNSYPLTFGGGTRVEIK , if possible.
Response: 0.57

Request: Repeat for the following binder: anti-uPAR monoclonal antibody 1.99.1 (antibody, V domains shown) VH: EVQLVESGGGLIQPGGSLRLSCAASGFTVRSNYMSWVRQAPGKGLEWISVIYTGGSTYYADSVKGRFSISRDNSKNTLYLQMNSLRAEDTAVYYCAREGAVAGFDYWGQGTLVTVSS VL: EIVMTQSPATLSVSPGERATLSCRASQSISSNLAWYQQKPGQAPRLLIYGASTRATGIPARFSGSGSGTEFTLTISSLQSEDFAVYYCQQYTNWPLTFGGGTKVEIK
Response: 3.5
